Test system: HOP-62 NSCLC
Assay: NCI tumour cell line growth inhibition, 48 h; in the data active = GI50 below about 0.43 µM; inactive = the rest
Would you mind answering with one of these outcomes? Yes for active, No for inactive

>  <compound>
C/C=C(/C)C(=O)OC1C=C(CO)C(=O)C(OC(=O)C(C)(O)C(C)Cl)C1C(C)C (centres undefined)

>  <assigned label>
No

$$$$

Tell me the recorded outcome of this test for CC[C@@H](C)Nc1cc(C(=O)NC2CC3CCC(C2)N3c2ccc(C(=O)C3CC3)cn2)c(C)cc1C(N)=O (some centres undefined) .
Yes

Tell me the recorded outcome of this test for `NC(=Nc1nc(-c2ccccn2)cc2ccccc12)c1ccccn1` .
Yes

Tell me the recorded outcome of this test for O=c1c(-c2ccc(O)cc2)coc2cc(OC3OC(CO)C(O)C(O)C3O)cc(O)c12 (centres undefined) .
No

====

Parameter: TGI. Scope: all listed entries.
System: SN12C renal
Assay: NCI tumour cell line growth inhibition, 48 h
Express the result in µM but write the number alone.

In the examples that follow, each entry is paired with its recorded TGI.
>  <molecule>
CC(Oc1ccccc1Cl)C(=O)NN1C(=O)CSC1c1ccc(Cl)cc1 (stereo not given)

>  <value units>
µM

>  <experimental value>
28

$$$$
>  <molecule>
NC(=Nc1nc(-c2ccccn2)cc2ccccc12)c1ccccn1

>  <value units>
µM

>  <experimental value>
22.7

$$$$

Please find the next molecule below.
State the recorded TGI for this entry: `CC(C)(C)c1ccc(O)c(CN(Cc2cc(C(C)(C)C)ccc2O)C2CCCCC2)c1`
42.1

====

System: SK-MEL-28 melanoma
Assay: NCI tumour cell line growth inhibition, 48 h
Parameter: TGI. Scope: all listed entries.
Express the result in µM but write the number alone.

In the examples that follow, each entry is paired with its recorded TGI.
>  <compound>
COC1(CC[C@H](C)COC2OC(CO)C(O)C(O)C2O)O[C@H]2C[C@H]3[C@@H]4CC=C5C[C@@H](OC6OC(CO)C(O)C(OC7OC(CO)C(O)C(O)C7O)C6OC6OC(C)C(O)C(O)C6O)CC[C@]5(C)[C@H]4CC[C@]3(C)[C@H]2[C@@H]1C (stereo not given in full)

>  <TGI (µM)>
6.74

$$$$
>  <compound>
CC(=O)Oc1c(C)c2c(c3ccccc13)OC(C)(C)C2

>  <TGI (µM)>
32.9

$$$$
>  <compound>
O=S(=O)(Nc1ccc2ccccc2c1)c1ccc(-c2cnc(C3CC3)o2)cc1

>  <TGI (µM)>
20.8

$$$$

State the recorded TGI for this entry: `COC(=O)C1=C(C(=O)OC)C2OC1c1cc3ccccc3cc12`
4.09

State the recorded TGI for this entry: COc1ccc(/C=C2\CC(C)CC3C2=NN(c2ccccc2)C3c2ccc(OC)c(OC)c2)cc1OC (stereo not given)
18.3

State the recorded TGI for this entry: `COc1ccc2c(c1)C(=O)c1c-2n(CCCN)c(=O)c2cc(OC)c(OC)cc12`
29.1

State the recorded TGI for this entry: `CN(C)CCNC(=O)c1cccc2ncc(-c3ccccc3)nc12`
36.1

State the recorded TGI for this entry: CCCCCCCCCCCCCCCC(=O)OC1C(O)C(CO)OC(OC)C1NC(=O)N(CCCl)N=O (stereo not given)
27.5

====

Parameter: TGI. Scope: all listed entries.
Tested on: HCT-15 colon
Assay: NCI tumour cell line growth inhibition, 48 h
Express the result in µM but write the number alone.

>  <compound>
COc1ccc2c(c1)C(=O)c1c-2n(CCCN)c(=O)c2cc(OC)c(OC)cc12

>  <TGI, µM>
1.18

$$$$
>  <compound>
CN(C)Cc1cc(N=Nc2ccc(Cl)cc2)ccc1O

>  <TGI, µM>
29.1

$$$$
>  <compound>
COc1ccc(CNc2cnc3cc(N)cc(N)c3n2)cc1

>  <TGI, µM>
68.6

$$$$
>  <compound>
CN1CCN(Cc2ccc(NC(=O)c3cncc(C#Cc4cnn5ccccc45)c3)cc2C(F)(F)F)CC1

>  <TGI, µM>
3.66

$$$$
>  <compound>
COC(=O)C1=C(O)[C@H](C(=O)OC)[C@]2(O)[C@@H](C(=O)OC)[C@H]1C[C@@H](c1ccc(OC(=O)/C=C/c3ccco3)cc1)[C@@H]2C(=O)OC

>  <TGI, µM>
24

$$$$

Please find the next compound below.
State the recorded TGI for this entry: C=C1C(=O)OC2CC3(C)CCCC(C)C3=CC12 (stereo unspecified)
5.08

Provenance of the data: PubChem BioAssay (NCI)
